tested on: CAKI-1; assay: NCI tumour cell line growth inhibition, 48 h
Active and inactive are the calls of the source. Cut-off read from the data, not from the text of the source: active = GI50 up to about 1.1 µM and inactive = higher.
measurement label: GI50

// known answers, use as guide
[[record]]
compound = "NC1=NCC(CN2CCCCC2)O1 (configuration not stated)"
measurement_label = "GI50"
recorded_result = "> 100 µM (inactive)"

[[record]]
compound = "O=C1CC2=CCCC2O1 (configuration not stated)"
measurement_label = "GI50"
recorded_result = "> 100 µM (inactive)"

[[record]]
compound = "Nc1nc(Cl)c(N)c(NC23CC4CC(CC(C4)C2)C3)n1"
measurement_label = "GI50"
recorded_result = "1.93 µM (inactive)"

[[record]]
compound = "Cc1ccc(C2C(Cl)C(=O)N2NC(=O)c2ccc(N)cc2)cc1 (configuration not stated)"
measurement_label = "GI50"
recorded_result = "20.1 µM (inactive)"

[[record]]
compound = "N#CC1C(=S)NC(c2ccccc2)=CC12CCCCC2 (configuration not stated)"
measurement_label = "GI50"
recorded_result = "47.3 µM (inactive)"

[[record]]
compound = "CN(C)CCCNC(=O)c1c(O)c2ccccc2n(C)c1=O"
measurement_label = "GI50"
recorded_result = "41.4 µM (inactive)"

[[record]]
compound = "COc1ccc(C2CC(C)(O)Oc3cc4c(cc32)OCO4)cc1 (configuration not stated)"
measurement_label = "GI50"
recorded_result = "41.7 µM (inactive)"

[[record]]
compound = "O=C1NC(=S)NC(=O)C1=Cc1ccc2ccccc2n1"
measurement_label = "GI50"
recorded_result = "> 100 µM (inactive)"


query: Dear colleague, I am looking for the recorded GI50 of the following compound: O=C(/C=C/c1ccc(-c2ccccc2)cc1)NCc1ccc(C(=O)NCCc2c[nH]c3ccccc23)cc1
result: 16.3 µM (inactive)

query: Dear colleague, I am looking for the recorded GI50 of the following compound: CC(C)OP(=O)(OC(C)C)/C(=N/Nc1ccc([N+](=O)[O-])cc1)NN
result: > 100 µM (inactive)

query: Dear colleague, I am looking for the recorded GI50 of the following compound: Cc1ccccc1NC(=O)C(=O)C(C#N)c1ccccc1C (configuration not stated)
result: > 100 µM (inactive)

query: Dear colleague, I am looking for the recorded GI50 of the following compound: Cc1nnc(SCc2nc(C#N)c(C#N)nc2CSc2nnc(C)s2)s1
result: 5.74 µM (inactive)
